// data source = the METLIN SMRT retention time set (Domingo-Almenara et al. 2019)

The entries below come with measured RP-LC retention time values attached.
# Assay summary: gradient 5% acetonitrile 3 min, to 50% in 2 min, to 85% in 15 min, held 3 min, 100 µL/min
# Condition set: column: Zorbax Extend-C18 2.1 x 50 mm; eluents: water / acetonitrile, 0.1% formic acid
Field format: number, assumed s, no unit text.

# example entries with known answers
| Molecule | Unit symbol | Meas value |
| --- | --- | --- |
| CCCn1ncc(N2CCC(C(=O)N3CCN(CC)CC3)CC2)cc1=O | s | 567 |
| CC1CCCN(c2ccc(-c3noc(CN4CCC5(CC4)OCCO5)n3)cn2)C1 (configuration not stated) | s | 680 |
| Cc1c(S(=O)(=O)NCC2CC2)c(C)n(C)c1-c1nnc(C2CCC2)o1 | s | 899 |
| O=C(Cn1nc2nc(N3CCCC3)ccn2c1=O)NCc1ccc(F)cc1Cl | s | 688 |
| Cc1ccc(CNC(=O)C2CCN(C(=O)C3Sc4ccccc4NC3=O)CC2)cc1 (configuration not stated) | s | 818 |
| O=S(=O)(Cc1ccccc1F)N1CCCC(c2nn[nH]n2)C1 (configuration not stated) | s | 706 |
| Cc1cc(NC(=O)Nc2cccc3ccccc23)no1 | s | 896 |
| CNC(=O)c1cc2c(cn1)[nH]c1ccccc12 | s | 706 |
| c1ccc(-c2nc3ncc4c(n3n2)CCC4)cc1 | s | 756 |
| Cc1ccc(-c2cc3c4nn(CC(=O)NC5CCCC5)c(=O)n4ccn3n2)cc1C | s | 918 |

# molecule `COc1cccc(-c2nc(Cn3cnc4ccccc4c3=O)no2)c1OC` ; its RP-LC retention time = 802

response.value for `Cc1cnc(C2CCC2)n1CC1CCN(C(=O)C2(c3ccccc3)CC2)CC1` (field: RP-LC retention time) = 592

====

Measured RP-LC retention time values are reported for all entries that follow.
# Assay summary: gradient 5% acetonitrile 3 min, to 50% in 2 min, to 85% in 15 min, held 3 min, 100 µL/min
# Condition set: column: Zorbax Extend-C18 2.1 x 50 mm; eluents: water / acetonitrile, 0.1% formic acid
# number only, unit s dropped from output

| Compound | Meas value |
| --- | --- |
| Cc1ccc(F)c(NC(=O)C2CC(=O)N(c3ccc4c(c3)CCN4C(=O)C3CC3)C2)c1 (configuration not stated) | 799 |
| O=C(NCCc1noc(C2CC2)n1)c1cccs1 | 700 |
| Cc1ccc2nc(-c3ccc(O)cc3)c(Nc3ccc(Cl)cc3)n2c1 | 671 |

response.value for Cc1cccc(CNC(=O)C2CCCN(S(=O)(=O)c3cn(C(C)C)cn3)C2)c1 (configuration not stated) (field: RP-LC retention time) = 781

// sample `Cc1nn(CC(=O)NCc2ccc(F)cc2Cl)c(=O)c2noc(C)c12` , its RP-LC retention time was 721

====

# Assay summary: gradient 5% acetonitrile 3 min, to 50% in 2 min, to 85% in 15 min, held 3 min, 100 µL/min
# Condition set: column: Zorbax Extend-C18 2.1 x 50 mm; eluents: water / acetonitrile, 0.1% formic acid
Readout: RP-LC retention time
Number first, unit second: that is the form wanted.

| Molecule | Readout | Meas value |
| --- | --- | --- |
| O=C(c1ccccc1F)N1CCCCC1c1nncn1CC1CC1 (stereo not given) | RP-LC retention time | 698 s |
| Cc1ccc(S(=O)(=O)N2CCC(n3cnnc3C)CC2)c(C)c1 | RP-LC retention time | 713 s |
| CCOc1ccc(-n2ccn3c(CC(C)CC(=O)NC4CCCC4)nnc3c2=O)cc1 (stereo not given) | RP-LC retention time | 710 s |
| O=C(Cc1nnc(-c2ccc3ncccc3c2)o1)N1CCN(c2ccccc2)CC1 | RP-LC retention time | 716 s |

Proceeding to the next molecule to report its RP-LC retention time.
# RP-LC retention time (molecule: CCOC(=O)C(=O)NCC1CCCN1S(=O)(=O)c1ccc(OC)cc1 (stereo not given) ) is 700 s
